Measured IC90, listed per entry.
Tested on: human hepatoma cell line ET
Test: Cytotoxicity in the replicon cell line, colorimetric assay of cell numbers
Details: read-out: Cytotoxicity IC90; ET cells, 72 h; concentration inhibiting cell viability by 90%
Where a name gives a salt, the structure may show the parent alone.

Query: Please supply the value of reported IC90 for the item C/C=C/C[C@@H](C)[C@@H](O)[C@H]1C(=O)N[C@@H](CC)C(=O)N(C)C(OCC)C(=O)N(C)[C@@H](CC(C)C)C(=O)N[C@@H](C(C)C)C(=O)N(C)[C@@H](CC(C)C)C(=O)N[C@@H](C)C(=O)N[C@H](C)C(=O)N(C)[C@@H](CC(C)C)C(=O)N(C)[C@@H](CC(C)C)C(=O)N(C)[C@@H](C(C)C)C(=O)N1C (stereo partly drawn) [M, 3-ethoxycyclosporin]
Reply: > 20 µM

Query: Please supply the value of reported IC90 for the item CC=CCC(C)C(O)C1C(=O)NC(CC)C(=O)N(C)C(SCCN(C)C)C(=O)N(C)C(CC(C)(C)O)C(=O)NC(C(C)C)C(=O)N(C)C(CC(C)C)C(=O)NC(C)C(=O)NC(C)C(=O)N(C)C(CC(C)C)C(=O)N(C)C(CC(C)C)C(=O)N(C)C(C(C)C)C(=O)N1C (stereo not drawn) [phosphate]
Reply: > 2 µM

Query: Please supply the value of reported IC90 for the item C/C=C/C[C@@H](C)[C@@H](O)[C@H]1C(=O)N[C@@H](CC)C(=O)N(C)[C@H](SCCN(C)C)C(=O)N(C)[C@@H](CC(C)(C)O)C(=O)N[C@@H](C(C)C)C(=O)N(C)[C@@H](CC(C)C)C(=O)N[C@@H](C)C(=O)N[C@H](C)C(=O)N(C)[C@@H](CC(C)C)C(=O)N(C)[C@@H](CC(C)C)C(=O)N(C)[C@@H](C(C)C)C(=O)N1C [Compound O]
Reply: > 20 µM

Query: Please supply the value of reported IC90 for the item C/C=C/C[C@@H](C)[C@@H](O)[C@H]1C(=O)N[C@@H](CC)C(=O)N(C)[C@H](SCCOC)C(=O)N(C)[C@@H](CC(C)(C)O)C(=O)N[C@@H](C(C)C)C(=O)N(C)[C@@H](CC(C)C)C(=O)N[C@@H](C)C(=O)N[C@H](C)C(=O)N(C)[C@@H](CC(C)C)C(=O)N(C)[C@@H](CC(C)C)C(=O)N(C)[C@@H](C(C)C)C(=O)N1C [Compound N]
Reply: > 20 µM

Query: Please supply the value of reported IC90 for the item C/C=C/C[C@@H](C)[C@@H](O)[C@H]1C(=O)N[C@@H](CC)C(=O)N(C)C(SCC)C(=O)N(C)[C@@H](CC(C)C)C(=O)N[C@@H](C(C)C)C(=O)N(C)[C@@H](CC(C)C)C(=O)N[C@@H](C)C(=O)N[C@H](C)C(=O)N(C)[C@@H](CC(C)C)C(=O)N(C)[C@@H](CC(C)C)C(=O)N(C)[C@@H](C(C)C)C(=O)N1C (stereo partly drawn) [P, 3-ethylthiocyclosporin]
Reply: > 20 µM

Query: Please supply the value of reported IC90 for the item C/C=C/C[C@@H](C)[C@@H](O)[C@H]1C(=O)N[C@@H](CC)C(=O)N(C)C(OCCN(C)C(C)C)C(=O)N(C)[C@@H](CC(C)C)C(=O)N[C@@H](C(C)C)C(=O)N(C)[C@@H](CC(C)C)C(=O)N[C@@H](C)C(=O)N[C@H](C)C(=O)N(C)[C@@H](CC(C)C)C(=O)N(C)[C@@H](CC(C)C)C(=O)N(C)[C@@H](C(C)C)C(=O)N1C (stereo partly drawn) [J]
Reply: 19.6 µM

Query: Please supply the value of reported IC90 for the item CC=CCC(C)C(O)C1C(=O)NC(CC)C(=O)N(C)C(SCCN(C)C)C(=O)N(C)C(CC(C)(C)O)C(=O)NC(C(C)C)C(=O)N(C)C(CC(C)C)C(=O)NC(C)C(=O)NC(C)C(=O)N(C)C(CC(C)C)C(=O)N(C)C(CC(C)C)C(=O)N(C)C(C(C)C)C(=O)N1C (stereo not drawn) [hydrochloride]
Reply: > 2 µM

Query: Please supply the value of reported IC90 for the item CC=CCC(C)C(O)C1C(=O)NC(CC)C(=O)N(C)C(OCCN2CCCCC2)C(=O)N(C)C(CC(C)C)C(=O)NC(C(C)C)C(=O)N(C)C(CC(C)C)C(=O)NC(C)C(=O)NC(C)C(=O)N(C)C(CC(C)C)C(=O)N(C)C(CC(C)C)C(=O)N(C)C(C(C)C)C(=O)N1C (stereo not drawn) [K, 3-[2-(piperidin-1-yl)ethoxy]cyclosporin]
Reply: 17.8 µM

Query: Please supply the value of reported IC90 for the item C/C=C/C[C@@H](C)[C@@H](O)[C@H]1C(=O)N[C@@H](CC)C(=O)N(C)[C@H](OCCN(C)C)C(=O)N(C)[C@@H](CC(C)C)C(=O)N[C@@H](C(C)C)C(=O)N(C)[C@@H](CC(C)C)C(=O)N[C@@H](C)C(=O)N[C@H](C)C(=O)N(C)[C@@H](CC(C)C)C(=O)N(C)[C@@H](CC(C)C)C(=O)N(C)[C@@H](C(C)C)C(=O)N1C [Compound C, 3-(2-N,N-dimethylaminoethoxy)cyclosporin]
Reply: > 3 µM

Query: Please supply the value of reported IC90 for the item C=CCO[C@@H]1C(=O)N(C)[C@@H](CC(C)(C)O)C(=O)N[C@@H](C(C)C)C(=O)N(C)[C@@H](CC(C)C)C(=O)N[C@@H](C)C(=O)N[C@H](C)C(=O)N(C)[C@@H](CC(C)C)C(=O)N(C)[C@@H](CC(C)C)C(=O)N(C)[C@@H](C(C)C)C(=O)N(C)[C@@H]([C@H](O)[C@H](C)C/C=C/C)C(=O)N[C@@H](CC)C(=O)N1C [U]
Reply: > 2 µM

Query: Please supply the value of reported IC90 for the item C/C=C/C[C@@H](C)[C@@H](O)[C@H]1C(=O)N[C@@H](CC)C(=O)N(C)C(OCCCO)C(=O)N(C)[C@@H](CC(C)C)C(=O)N[C@@H](C(C)C)C(=O)N(C)[C@@H](CC(C)C)C(=O)N[C@@H](C)C(=O)N[C@H](C)C(=O)N(C)[C@@H](CC(C)C)C(=O)N(C)[C@@H](CC(C)C)C(=O)N(C)[C@@H](C(C)C)C(=O)N1C (stereo partly drawn) [H, 3-(3-hydroxypropoxy)cyclosporin]
Reply: > 20 µM

Query: Please supply the value of reported IC90 for the item CC=CCC(C)C(O)C1C(=O)NC(CC)C(=O)N(C)C(SCCN(C)C)C(=O)N(C)C(CC(C)(C)O)C(=O)NC(C(C)C)C(=O)N(C)C(CC(C)C)C(=O)NC(C)C(=O)NC(C)C(=O)N(C)C(CC(C)C)C(=O)N(C)C(CC(C)C)C(=O)N(C)C(C(C)C)C(=O)N1C (stereo not drawn) [acetate]
Reply: > 2 µM
